# measured_on: Ornithine decarboxylase (Mus musculus)
# test_description: Inhibition of tumor promoter (TPA) -induced mouse epidermal ornithine decarboxylase (ODC) activity at 17 nmol dose level
# Type: functional
Lab note: compare inhibition against 7%. Equal or greater, write Met. Smaller, write Not met.

>>> label_value("CC1=C(/C=C/C(C)=C/C=C/c2ccccc2O)C(C)(C)CCC1")
"Met"
>>> label_value("CC1=C(/C=C/C(C)=C\\c2ccc(C(=O)O)cc2)C(C)(C)CCC1")
"Met"
>>> label_value("CC1=C(/C=C/C(C)=C/c2ccc(C(=O)O)cc2)C(C)(C)CCC1")
"Met"
>>> label_value("CCOC(=O)c1ccc(/C=C(C)/C=C/C2=C(C)CCCC2(C)C)cc1C")
"Not met"

Request: Form field: inhibition at least 7%? Entry: CC1=C(/C=C/C(C)=C\C=C\c2ccccc2O)C(C)(C)CCC1
Result: Not met

Request: Please answer likewise for CCOC(=O)c1ccc(/C=C(C)/C=C/C23OC2(C)CCCC3(C)C)cc1 (configuration not stated)
Result: Met
